test: Octanol-phosphate buffer partition coefficient, log P of the compound after 24 hr; type: physicochemical
readoutLabel: logP at 24 h
Answers are plain numbers.

Some entries whose results are on file:
| inputSmiles | readoutLabel | numericValue |
| --- | --- | --- |
| O=C(CSc1nc2ccccc2s1)N/N=C/c1ccc(Oc2ccc(Cl)cc2)cc1 | logP at 24 h | 5.6 |
| Clc1ccc(Oc2ccc(/C=N/Nc3nc4ccccc4s3)cc2)cc1 | logP at 24 h | 5.6 |

# per-item lookup of logP at 24 h; items listed below
1. C(=N\Nc1nc2ccccc2s1)/c1ccc(Oc2ccc3c(c2)OCO3)cc1
2. Cc1ccc(Oc2ccc(/C=N/Nc3nc4ccccc4s3)cc2)cc1
3. O=C1Nc2ccccc2/C1=N/Nc1nc2ccccc2s1
4. C(=N\Nc1nc2ccccc2s1)/c1ccc(Oc2ccccc2)cc1
5. O=C(CSc1nc2ccccc2s1)N/N=C/c1ccc(Oc2ccc(Br)cc2)cc1

Resp:
5
5.4
3.2
5.2
5.7

# per-item lookup of logP at 24 h; items listed below
1. O=C(CSc1nc2ccccc2s1)N/N=C/c1ccc(Oc2ccccc2)cc1
2. Brc1ccc(Oc2ccc(/C=N/Nc3nc4ccccc4s3)cc2)cc1
3. O=C(CSc1nc2ccccc2s1)N/N=C/c1ccc(Oc2ccc([N+](=O)[O-])cc2)cc1

Resp:
1: 5.6; 2: 5.5; 3: 5.3
